Tested on: 628569-122-R-J1-PDC complex spheroid viability
assay-text: Anticancer human tumor 628569-122-R-J1-PDC patient-derived head and neck squamous carcinoma cell line growth inhibition [CLK]; active means viability on the fitted dose curve at most 10% of control; inactive means the rest
run-conditions: second compound 10 µM; first compound 10 µM
Labels: T (active), F (inactive)

molecule	target-of-assay	class
O=c1[nH]cc(F)c(=O)[nH]1 + CN1CCN(c2cc(C(=O)Nc3cc4cc(-c5cnn(C)c5)ccc4cn3)ccn2)CC1	628569-122-R-J1-PDC complex spheroid viability	T
Nc1ccn(C2OC(CO)C(O)C2(F)F)c(=O)n1 (centres undefined) + CN1CCN(c2cc(C(=O)Nc3cc4cc(-c5cnn(C)c5)ccc4cn3)ccn2)CC1	628569-122-R-J1-PDC complex spheroid viability	T
CC1(C)CCC(CN2CCN(c3ccc(C(=O)NS(=O)(=O)c4ccc(NCC5CCOCC5)c([N+](=O)[O-])c4)c(Oc4cnc5[nH]ccc5c4)c3)CC2)=C(c2ccc(Cl)cc2)C1 + CN1CCN(c2cc(C(=O)Nc3cc4cc(-c5cnn(C)c5)ccc4cn3)ccn2)CC1	628569-122-R-J1-PDC complex spheroid viability	T
C#Cc1c(F)ccc2cc(O)cc(-c3ncc4c(N5CC6CCC(C5)N6)nc(OCC56CCCN5CC(F)C6)nc4c3F)c12 (centres undefined) + CNC(=O)c1ccc(Nc2nc(OC3CCCC3)c3c(-c4ccc5nc(C)oc5c4)c[nH]c3n2)c(OC)c1	628569-122-R-J1-PDC complex spheroid viability	F
COc1ccc([C@@H](O)c2cc(-c3ncnc4cc(N5CCOCC5)ccc34)c(F)cc2Cl)nn1 + CNC(=O)c1ccc(Nc2nc(OC3CCCC3)c3c(-c4ccc5nc(C)oc5c4)c[nH]c3n2)c(OC)c1	628569-122-R-J1-PDC complex spheroid viability	F
CC(Nc1ccc2c(c1)OCCn1cc(N3C(=O)OCC3C(F)F)nc1-2)C(N)=O (centres undefined) + CN1CCN(c2cc(C(=O)Nc3cc4cc(-c5cnn(C)c5)ccc4cn3)ccn2)CC1	628569-122-R-J1-PDC complex spheroid viability	T
Nc1ccccc1NC(=O)c1ccc(CNC(=O)OCc2cccnc2)cc1 + CNC(=O)c1ccc(Nc2nc(OC3CCCC3)c3c(-c4ccc5nc(C)oc5c4)c[nH]c3n2)c(OC)c1	628569-122-R-J1-PDC complex spheroid viability	T
CC1(C)CCC(CN2CCN(c3ccc(C(=O)NS(=O)(=O)c4ccc(NCC5CCOCC5)c([N+](=O)[O-])c4)c(Oc4cnc5[nH]ccc5c4)c3)CC2)=C(c2ccc(Cl)cc2)C1 + CNC(=O)c1ccc(Nc2nc(OC3CCCC3)c3c(-c4ccc5nc(C)oc5c4)c[nH]c3n2)c(OC)c1	628569-122-R-J1-PDC complex spheroid viability	F
CC(CO)NC(=O)c1cc(-c2ccc(Cl)cc2)nn(-c2cnn(C)c2)c1=O (centres undefined) + CN1CCN(c2cc(C(=O)Nc3cc4cc(-c5cnn(C)c5)ccc4cn3)ccn2)CC1	628569-122-R-J1-PDC complex spheroid viability	T
CC1COCCN1c1cc(C2(S(C)(=N)=O)CC2)nc(-c2ccnc3[nH]ccc23)n1 (centres undefined) + CN1CCN(c2cc(C(=O)Nc3cc4cc(-c5cnn(C)c5)ccc4cn3)ccn2)CC1	628569-122-R-J1-PDC complex spheroid viability	T
COc1ccc([C@@H](O)c2cc(-c3ncnc4cc(N5CCOCC5)ccc34)c(F)cc2Cl)nn1 + CN1CCN(c2cc(C(=O)Nc3cc4cc(-c5cnn(C)c5)ccc4cn3)ccn2)CC1	628569-122-R-J1-PDC complex spheroid viability	T
Nc1ccn(C2OC(CO)C(O)C2(F)F)c(=O)n1 (centres undefined) + CNC(=O)c1ccc(Nc2nc(OC3CCCC3)c3c(-c4ccc5nc(C)oc5c4)c[nH]c3n2)c(OC)c1	628569-122-R-J1-PDC complex spheroid viability	F
CC(CO)NC(=O)c1cc(-c2ccc(Cl)cc2)nn(-c2cnn(C)c2)c1=O (centres undefined) + CNC(=O)c1ccc(Nc2nc(OC3CCCC3)c3c(-c4ccc5nc(C)oc5c4)c[nH]c3n2)c(OC)c1	628569-122-R-J1-PDC complex spheroid viability	F
COc1cccc2c1C(=O)c1c(O)c3c(c(O)c1C2=O)CC(O)(C(=O)CO)CC3OC1CC(N)C(O)C(C)O1 (centres undefined) + CNC(=O)c1ccc(Nc2nc(OC3CCCC3)c3c(-c4ccc5nc(C)oc5c4)c[nH]c3n2)c(OC)c1	628569-122-R-J1-PDC complex spheroid viability	T

---

Tested on: 628569-122-R-J1-PDC complex spheroid viability
assay-text: Anticancer human tumor 628569-122-R-J1-PDC cell line growth inhibition [CLK];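 further: spheroids exposed to agents for seven days before readout; 100% = DMSO vehicle control viability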
run-conditions: second compound 10 µM; first compound 0.0316 µM; hits give low values
experimental-readout: viability, T/C (%)

compound	target-of-assay	numeric-value
C=CC(=O)N1CCN(c2nc(=O)n(-c3c(C)ccnc3C(C)C)c3nc(-c4c(O)cccc4F)c(F)cc23)C(C)C1 (stereo not drawn) + CNC(=O)c1ccc(Nc2nc(OC3CCCC3)c3c(-c4ccc5nc(C)oc5c4)c[nH]c3n2)c(OC)c1	628569-122-R-J1-PDC complex spheroid viability	48.6
COc1ccc([C@@H](O)c2cc(-c3ncnc4cc(N5CCOCC5)ccc34)c(F)cc2Cl)nn1 + CNC(=O)c1ccc(Nc2nc(OC3CCCC3)c3c(-c4ccc5nc(C)oc5c4)c[nH]c3n2)c(OC)c1	628569-122-R-J1-PDC complex spheroid viability	45.1
CC(CO)NC(=O)c1cc(-c2ccc(Cl)cc2)nn(-c2cnn(C)c2)c1=O (stereo not drawn) + CN1CCN(c2cc(C(=O)Nc3cc4cc(-c5cnn(C)c5)ccc4cn3)ccn2)CC1	628569-122-R-J1-PDC complex spheroid viability	4.35

---

Measured viability, T/C accompanies every entry in the list below.
Tested on: 628569-122-R-J1-PDC complex spheroid viability
assay-text: Anticancer human tumor 628569-122-R-J1-PDC cell line growth inhibition [CLK];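 further: spheroids exposed to agents for seven days before readout; 100% = DMSO vehicle control viability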
run-conditions: second compound 10 µM; first compound 0.316 µM; hits give low values

compound	target-of-assay	scale-unit	viability, T/C
O=c1[nH]cc(F)c(=O)[nH]1 + CN1CCN(c2cc(C(=O)Nc3cc4cc(-c5cnn(C)c5)ccc4cn3)ccn2)CC1	628569-122-R-J1-PDC complex spheroid viability	%	4.42
CCc1c2c(nc3ccc(O)cc13)-c1cc3c(c(=O)n1C2)COC(=O)[C@]3(O)CC + CNC(=O)c1ccc(Nc2nc(OC3CCCC3)c3c(-c4ccc5nc(C)oc5c4)c[nH]c3n2)c(OC)c1	628569-122-R-J1-PDC complex spheroid viability	%	24.5
Nc1ccccc1NC(=O)c1ccc(CNC(=O)OCc2cccnc2)cc1 + CNC(=O)c1ccc(Nc2nc(OC3CCCC3)c3c(-c4ccc5nc(C)oc5c4)c[nH]c3n2)c(OC)c1	628569-122-R-J1-PDC complex spheroid viability	%	44.2
O=C(c1cc(Cc2n[nH]c(=O)c3ccccc23)ccc1F)N1CCN(C(=O)C2CC2)CC1 + CNC(=O)c1ccc(Nc2nc(OC3CCCC3)c3c(-c4ccc5nc(C)oc5c4)c[nH]c3n2)c(OC)c1	628569-122-R-J1-PDC complex spheroid viability	%	49.3

---

System: 628569-122-R-J1-PDC complex spheroid viability
assay-text: Anticancer human tumor 628569-122-R-J1-PDC cell line growth inhibition [CLK]; active means viability on the fitted dose curve at most 10% of control; inactive means the rest;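 further: spheroids exposed to agents for seven days before readout; 100% = DMSO vehicle control viability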
run-conditions: second compound 10 µM; first compound 0.0316 µM
Labels: label 1 for active, label 0 for inactive

compound	class
COC1C=CCC(C)C(C)S(=O)(=O)NC(=O)c2ccc3c(c2)N(CC2CCC21)CC1(CCCc2cc(Cl)ccc21)CO3 (stereo not drawn) + CNC(=O)c1ccc(Nc2nc(OC3CCCC3)c3c(-c4ccc5nc(C)oc5c4)c[nH]c3n2)c(OC)c1	label 0
COC1C=CCC(C)C(C)S(=O)(=O)NC(=O)c2ccc3c(c2)N(CC2CCC21)CC1(CCCc2cc(Cl)ccc21)CO3 (stereo not drawn) + CN1CCN(c2cc(C(=O)Nc3cc4cc(-c5cnn(C)c5)ccc4cn3)ccn2)CC1	label 1
COc1cccc2c1C(=O)c1c(O)c3c(c(O)c1C2=O)CC(O)(C(=O)CO)CC3OC1CC(N)C(O)C(C)O1 (stereo not drawn) + CN1CCN(c2cc(C(=O)Nc3cc4cc(-c5cnn(C)c5)ccc4cn3)ccn2)CC1	label 1

---

Each item that follows carries a reported viability, T/C.
Tested on: 628569-122-R-J1-PDC complex spheroid viability
assay-text: Anticancer human tumor 628569-122-R-J1-PDC cell line growth inhibition [CLK];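 further: spheroids exposed to agents for seven days before readout; 100% = DMSO vehicle control viability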
run-conditions: second compound 0.316 µM; first compound 0.316 µM; hits give low values

molecule	viability, T/C
COc1cccc2c1C(=O)c1c(O)c3c(c(O)c1C2=O)CC(O)(C(=O)CO)CC3OC1CC(N)C(O)C(C)O1 (centres undefined) + CN1CCN(c2cc(C(=O)Nc3cc4cc(-c5cnn(C)c5)ccc4cn3)ccn2)CC1	15%
CC(CO)NC(=O)c1cc(-c2ccc(Cl)cc2)nn(-c2cnn(C)c2)c1=O (centres undefined) + CN1CCN(c2cc(C(=O)Nc3cc4cc(-c5cnn(C)c5)ccc4cn3)ccn2)CC1	68.9%
CC(=O)O[C@H]1C(=O)[C@@]2(C)[C@H]([C@H](OC(=O)c3ccccc3)[C@]3(O)C[C@H](OC(=O)[C@H](O)[C@@H](NC(=O)c4ccccc4)c4ccccc4)C(C)=C1C3(C)C)[C@]1(OC(C)=O)CO[C@@H]1C[C@@H]2O + CNC(=O)c1ccc(Nc2nc(OC3CCCC3)c3c(-c4ccc5nc(C)oc5c4)c[nH]c3n2)c(OC)c1	59.7%
C=CC(=O)N1CCN(c2nc(=O)n(-c3c(C)ccnc3C(C)C)c3nc(-c4c(O)cccc4F)c(F)cc23)C(C)C1 (centres undefined) + CNC(=O)c1ccc(Nc2nc(OC3CCCC3)c3c(-c4ccc5nc(C)oc5c4)c[nH]c3n2)c(OC)c1	60.2%

// provenance: PubChem BioAssay AID2060611
